# assay_protocol: Measurement of the approximate solubility at ambient temperature
# Type: physicochemical
# setup_conditions: organic solvent or mixture, thermodynamic from solid, N-methyl-2-pyrrolidone (NMP), 23° C.
# Description: In some embodiments, to determine the approximate solubility at room temperature, solvent was added in steps to the solid material. After every addition, the sample was well stirred. […] In other embodiments, aliquots of the test solvent were added to an accurately weighed amount of the compound of Formula I in small increments (usually 100-1000 μL), with sonication until complete dissolution was obtained, if possible. Dissolution was determined visually. […]
observation_type: solubility

Cc1cc(OC[P@@]2(=O)OCC[C@@H](c3cccc(Cl)c3)O2)cc(C)c1Cc1ccc(O)c(C(C)C)c1 ... > 200 mg/mL

Where do these numbers come from? They come from patent US12227533B2.
